The measured values listed here are drawn from a melting point compilation (Tetko et al.; mined from patent text by program, amines drawn as free bases though some values may be those of a salt).

Measured melting point, listed per entry.

Solved entries (count: 5):
CC(C)CCC(C)NC1=NS(=O)(=O)c2cc(Cl)ccc2N1 (stereo unspecified)	> 220 °C
CCc1cc(C=C[N+](=O)[O-])c(OC)nc1C	105 to 107 °C
O=C(Nc1ccc(-n2nc(C(F)(F)F)cc2C(F)(F)F)cc1)c1ccc(Br)cc1	205 to 207 °C
CC(NC(=O)n1c(=O)nc(N(C)C)n1C)c1ccccc1 (stereo unspecified)	103 °C
Cc1ccc2ccccc2c1C(=O)/C=C/c1ncn(C(c2ccccc2)(c2ccccc2)c2ccccc2)c1C	222 to 224 °C

From here, focus on the item given below.
Give the reported melting point for this compound. O=C1NC(=O)N2C(c3ccccc3)SC[C@@H]12 (stereo partly specified)
177 to 179 °C

---

assay_readout: melting point

Solved entries (count: 5):
Cc1c(F)c(NCc2ccccc2)cc2oc(=O)[nH]c12	204 to 206 °C
CCC1Cc2cc(OCCCC(=O)O)c(Cl)c(Cl)c2C1=O (stereo not given)	146 to 148 °C
CC(C)N(C(=O)C(Cc1ccc(C#N)cc1)NC(=O)OC(C)(C)C)C(C)C (stereo not given)	172 °C
Cc1ccc2c(C3CCN(CC#N)CC3)cn(-c3ccc(F)cc3)c2c1	101 to 103 °C
CCOc1c(/C=C/c2ccc(NS(C)(=O)=O)cc2)cc(-n2ccc(=O)[nH]c2=O)cc1C(C)(C)C	265 to 266 °C

Give the reported melting point for this compound. CC(C=CC=C(C)CCCC(C)CCCC(C)C)=CC(=O)O (stereo not given)
84.5 to 85.5 °C

Give the reported melting point for this compound. `COC(=O)C1=C(NC(=O)NC2CCCCC2)CSC1`
154 to 155 °C

Give the reported melting point for this compound. O=c1[nH]c(=O)n(C2OC(CO)C(O)C2F)cc1Br (stereo not given)
214 to 216 °C

Give the reported melting point for this compound. `O=Cc1ccc(-c2ccc(OCc3ccccc3)cc2)cc1`
122 to 123 °C

Give the reported melting point for this compound. `Nc1cc2nc(C(=O)O)c(=O)[nH]c2cc1[N+](=O)[O-]`
300 °C

---

Measured melting point, listed per entry.

Solved entries (count: 4):
COc1cc(Oc2ccc(S(C)(=O)=O)nc2)cc2cc(C3=NCC(CC(=O)N(C)C)S3)[nH]c12 (stereo not given)	206 to 207 °C
COc1ccc(-c2c3c(cc4ccc(OC)cc24)C(=O)NC3)cc1	290 to 292 °C
Cc1ccccc1-c1cc(C#N)c[nH]1	151 to 152 °C
CCCCC(CC(=O)Nc1cc(C(N)=O)ccc1C(C)(C)C)c1cc(Cl)c(OCCCOC)cc1OC (stereo not given)	176 to 190 °C

From here, focus on the item given below.
Give the reported melting point for this compound. c1ccc(C2OC3(CCNCC3)c3ccccc32)cc1 (stereo not given)
99 to 107 °C

---

assay_readout: melting point

COCCOc1cc2ncnc(Nc3cc(OC)c(Br)cc3OC)c2cc1OC	217 to 221 °C
O=Cc1ccccc1C(=O)c1ccccc1	64 to 67 °C
CC(=O)C(CCC#N)(CCC#N)C(C)=O	185 to 186 °C
CCCCCCCCCCCCCCCCCCSC(=O)Nc1ccc(NC(=O)NS(=O)(=O)c2ccc(OC)cc2)cc1	195 °C
Fc1ccc(-c2ccn(CC3CCNCC3)c2-c2ccncc2)cc1	174 to 176 °C

Give the reported melting point for this molecule. `C=CCN(CC=C)Cc1nc(-c2ncn3c2[C@@H]2CCN2C(=O)c2cc(F)ccc2-3)no1`
100 to 105 °C

Give the reported melting point for this molecule. `CCCCOc1cc(/C=C(\OCC)C(=O)O)ccc1CCCc1ccc(OS(=O)(=O)CCCC)c(OC)c1`
75 °C

Give the reported melting point for this molecule. CC(C(=O)O)c1ccc2c(c1)Cc1ccccc1-2 (stereo unspecified)
180 to 182 °C

Give the reported melting point for this molecule. CCCNCC1Cc2ccc(C3=NNC(=O)CC3)cc2C1 (stereo unspecified)
82 to 84 °C

---

assay_readout: melting point

Solved entries (count: 5):
COCCN1CCN(c2ccc(C(=O)NC3(C(=O)NCC#N)CCCCC3)cc2)CC1	166 to 168 °C
Cn1cc(-c2cc3nccnc3[nH]2)c2cc(OC3(CO)CCC3)ccc21	267 to 271 °C
NC(=O)CCc1cccc2c1C[C@@H](CCCCc1ccccc1)O2	92 to 93 °C
CCc1ccc(NC2=CC3=NCN(C)C3=CC2(F)C(N)=O)c(F)c1 (centres undefined)	249 to 251 °C
COC(=O)c1ccc(-c2nnc(-c3ccc(C(C)(C)C)cc3)o2)cc1	210 to 211 °C

Give the reported melting point for this compound. `O=C(O)C=CC(=O)Oc1ccccc1`
127 to 128 °C

Give the reported melting point for this compound. `O=C(CCCCCCN(Cc1ccccc1)C(=O)c1cn2c3c(cccc13)CCC2)NO`
71 to 73 °C

Give the reported melting point for this compound. `Cc1c2c(c(Cc3ccc(C(C)C)cc3)c(C)c1NC(=O)CC(C)(C)C)OCC2`
201 to 202 °C

Give the reported melting point for this compound. `CS(=O)(=O)c1ccc(-c2c(-c3ccc(F)cc3)c(OCC(=O)c3ccccc3)nn2CC(=O)c2ccccc2)cc1`
151 to 152 °C

---

Measured melting point, listed per entry.

CNNc1ccc(-c2ccc3c(=O)c(C(=O)O)cn(C4CC4)c3c2C)cn1	246 °C
N#CN1CCNC(c2ccccc2)c2ccccc2C1 (stereo unspecified)	134 to 135 °C
COc1cc2ncc(C#N)c(Nc3cccc(SC)c3)c2cc1OC	> 250 °C

Give the reported melting point for this molecule. `C=CCONC(=O)c1c(Cl)nn(C)c1Cl`
96 to 97 °C

Give the reported melting point for this molecule. `COC(=O)c1ccc([N+](=O)[O-])s1`
74 °C

Give the reported melting point for this molecule. `CC(=O)c1ccc(C2CC(C)(C)CC(C)(C)C2)cc1`
54 °C

Give the reported melting point for this molecule. `c1cc2c(cc1OCC1CCCCC1)CCCCC2`
62 to 63 °C

Give the reported melting point for this molecule. `COCc1nc2cnc3ccccc3c2n1CC(C)C`
96 to 99 °C

---

Measured melting point, listed per entry.

Solved entries (count: 3):
CN(C)C(=O)Nc1c(Cl)cc2c(c1Cl)C(c1ccccc1F)=NCC(=O)N2C	145 to 147 °C
CN(C(=O)c1cn2cc(-c3ccc(Cl)cc3)ccc2n1)C(Cc1ccc(OCc2ccccc2)cc1)C(=O)O (stereo not given)	216 °C
CCCCCCCCOc1ccc(O)c2ccccc12	73 to 74 °C

Give the reported melting point for this molecule. `COc1ccc2nc(CN3CCN(c4ccc(Cl)cc4Cl)CC3)cn2c1`
130 °C

Give the reported melting point for this molecule. `Cc1c(F)cc(C(=O)OC(C)(C)C)cc1I`
77 to 80 °C

Give the reported melting point for this molecule. `COc1c(N(C)C)cc(CC(C#N)=CNc2ccccc2)cc1N(C)C(C)=O`
176 to 178 °C

Give the reported melting point for this molecule. `CC(C)(C)c1ccccc1COc1ccc(N)nn1`
147 to 149 °C

Give the reported melting point for this molecule. `CN(C)c1nc2ccccc2n2cnnc12`
184 to 186 °C

Give the reported melting point for this molecule. COc1ccc2cc(CCc3ccc(OCC(O)CNC(C)C)cc3)n(C)c(=O)c2c1 (stereo not given)
137 to 139 °C

---

assay_readout: melting point

Solved entries (count: 6):
CC(C)(Cc1ccccc1)C(=O)Cn1cncn1	79 °C
Cc1ccc(S(=O)(=O)Oc2ccc3c4c(nn3CCCN)-c3cnccc3C(=O)c24)cc1	211 to 213 °C
O=c1[nH]cnc(N=Nc2ccccc2)c1O	244 to 245 °C
CCOC(=O)C=Cc1ccc(Cl)cc1N(CC(=O)c1ccc(Cl)cc1)S(=O)(=O)c1ccc(C)cc1	162 to 165 °C
COc1ccc2c(c1)CN(CCc1ccc(NC(=O)c3cccc4c(=O)c5cccc(OC)c5[nH]c34)cc1)CC2	213 to 216 °C
CCOc1nc(=O)c2cc(C(F)(F)F)cc([N+](=O)[O-])c2s1	146 to 148 °C

Give the reported melting point for this compound. `Cc1nc(-c2c(F)cccc2Cl)nn1-c1ccc(CO)cc1`
120 to 122 °C

Give the reported melting point for this compound. `COc1ccnc(N2CCN(Cc3ccc(C(C)(C)NC(C)=O)cc3)CC2)n1`
160 to 162 °C

Give the reported melting point for this compound. `Cc1ccc(S(=O)(=O)NC(=O)CC(=O)O)cc1`
80 °C

Give the reported melting point for this compound. `Cc1cc(C#N)cc(Oc2nc(Cl)nc(Cl)c2C(C)C)c1`
143 to 144 °C

Give the reported melting point for this compound. `CCOC(=O)Nc1nc(=O)c2cnn3c2n1CC=C3c1cccc(C(F)(F)F)c1`
219 to 220 °C

Give the reported melting point for this compound. `COC[C@H]1CCCN1NC(=O)Nc1cccc2c1C(=O)c1c-2n[nH]c1-c1ccc(C(=O)N2CCN(C(=O)OC(C)(C)C)CC2)s1`
> 300 °C

Give the reported melting point for this compound. `N#C[C@@H]1CCC[C@H]2OC[C@@H](c3ccccc3)N12`
81 °C
